- TEST_NAME: AUC (0-6hr) in rats following 10 mg/kg peroral dose
- Assay type: ADME, organism-based
- Set-up: time < 6 hr, dose 10 mg/kg, route oral
- CONDITION_CONTEXT: rat, plasma, po

| MOLECULE | AUC(0-t) at 6 h (µg·h/mL) |
| --- | --- |
| CN1CCN(CCCN(C(=O)Nc2ccc(F)c(Cl)c2)C2CCc3ccc(C#N)cc3C2)CC1 (configuration not stated) | 0.642 |
| CC(=O)Nc1ccc2c(c1)CC(N(CCCN1CCN(C)CC1)C(=O)Nc1ccc(F)c(Cl)c1)CC2 (configuration not stated) | 0.195 |

----------
# pKi per entry for Melanin-concentrating hormone receptor 1 (Homo sapiens, UniProt Q99705)
pKi: −log10 of the molar value.

| MOLECULE | pKi |
| --- | --- |
| CN1CCN(CCCN(C(=O)Nc2ccc(F)c(Cl)c2)C2CCc3ccc(S(=O)(=O)N(C)C)cc3C2)CC1 (stereo unspecified) | 5.52 |
| CN1CCN(CCCN(C(=O)Nc2ccc(F)c(Cl)c2)C2CCc3ccc(S(C)(=O)=O)cc3C2)CC1 (stereo unspecified) | 5.89 |
| CCNC(=O)Nc1ccc2c(c1)CC(N(CCCN1CCN(C)CC1)C(=O)Nc1ccc(F)c(Cl)c1)CC2 (stereo unspecified) | 6.80 |
| COc1ccc2c(c1)CCC(N(CCCN1CCN(C)CC1)C(=O)Nc1ccc(F)c(Cl)c1)C2 (stereo unspecified) | 6.72 |
| CN1CCN(CCCN(C(=O)Nc2ccc(F)c(Cl)c2)C2CCc3cc(C#N)ccc3C2)CC1 (stereo unspecified) | 6.47 |
| CN1CCN(CCCN(C(=O)Nc2ccc(F)c(Cl)c2)C2CCc3ccc(N)cc3C2)CC1 (stereo unspecified) | 6.59 |

The measured values listed here are drawn from ChEMBL document CHEMBL1137583.
